This section presents molecules with their documented T/C values.
tested on: L1210 leukemia ip in BDF1 mice, survival T/C; assay: NCI In Vivo Anticancer Drug Screen. Data for tumor model L1210 Leukemia (intraperitoneal) in B6D2F1 (BDF1) mice; conditions: endpoint: mean survival time; dose: 400.0 mg/kg/injection; schedule: Q01DX009 (ip); vehicle: Klucel (hydroxypropylcellulose) (HPC); higher = longer survival
Inconclusive results and toxic doses are left out.
property.label: T/C

molecule	property.label	meas.value
CN(Nc1c([N+](=O)[O-])cc([N+](=O)[O-])cc1[N+](=O)[O-])c1ccc2ccccc2c1	T/C	98 % of control
COc1ccc(C)cc1CN1NC(=O)CC1=N	T/C	98 % of control
CCOC(=O)C(=O)Cc1cnc2ccccc2n1	T/C	92 % of control
O=[N+]([O-])c1ccc(Oc2ccc(S(=O)(=O)F)cc2)cc1	T/C	98 % of control
O=[N+]([O-])c1ccc2c(c1)C(C(Cl)(Cl)Cl)OC(C(Cl)(Cl)Cl)O2 (stereo unspecified)	T/C	95 % of control
CCN(C(=O)Nc1ccc(OC)cc1)c1ccccc1C	T/C	102 % of control
COC12CC(COC(=O)c3cncc(Br)c3)CN(C)C1Cc1cn(C)c3cccc2c13 (stereo unspecified)	T/C	113 % of control
CC(=NC(CC(C)C)C(=O)O)NC(CC(C)C)C(=O)O (stereo unspecified)	T/C	103 % of control
NC(=O)c1[nH]cnc1/N=N/N(CCCl)Cc1ccccc1	T/C	117 % of control
CC(=O)CC(C)=Nc1ccc(Cl)cc1	T/C	108 % of control
CCOC(=O)/C(C#N)=C/c1ccc(O)c(OC)c1	T/C	89 % of control

###

Test system: L1210 leukemia ip in BDF1 mice, survival T/C
Experiment: NCI In Vivo Anticancer Drug Screen. Data for tumor model L1210 Leukemia (intraperitoneal) in B6D2F1 (BDF1) mice
Details: endpoint: mean survival time; dose: 50.0 mg/kg/injection; schedule: Q01DX001 (ip); vehicle: saline; higher = longer survival
Experimental: The antitumor activity of compounds was measured in mice bearing transplantable tumors. Survival or tumor size were measured and the results are expressed as the measurement made in the treated group (T) divided by the measurement made in the vehicle treated control group (C). The tumor model used in this assay is L1210 Leukemia (intraperitoneal) in B6D2F1 (BDF1) mice
Inconclusive results and toxic doses are left out.

compound	T/C
Cn1c(=O)c2c(nc(CCCC3CCCCC3)n2C)n(C)c1=O	103 % of control
CCN(CC)Cc1cc(Nc2nc(/C=C/c3ccc(Cl)cc3)nc(Cl)c2-c2ccc(Cl)cc2)ccc1O	100 % of control
Nc1cc(=O)[nH]c(=S)n1-c1ccc(I)cc1	100 % of control
Clc1cccc(/C=N/Nc2nnc(N/N=C/c3cccc(Cl)c3)c3ccccc23)c1	100 % of control
Cc1ccc(C(CO)(CO)OC(CO)(CO)c2ccc(C)c(C)c2)cc1C	105 % of control
CC(=O)Nc1ccc(OC(=O)Oc2ccc(NC(C)=O)cc2)cc1	101 % of control
CCOC(=O)n1cnc2nc(N)nc(SC)c21	103 % of control
CCCCCCC[As](=O)(O)CCCCCCC	106 % of control
CC/C(C)=N\O	112 % of control
CS(=O)(=O)OCCN(CCOS(C)(=O)=O)c1ccc(/C=N/Nc2ncnc3nc[nH]c23)cc1	119 % of control
CCCCCCCCCCCCCCOS(=O)(=O)c1ccc(C)cc1	102 % of control
O=C1CCC(N2C(=O)c3ccccc3C2=O)C(=O)N1 (stereo unspecified)	105 % of control
Cc1cn(C2CCCO2)c(=O)nc1N (stereo unspecified)	103 % of control
c1ccc([P+](Cc2ccc3c(c2)OCO3)(c2ccccc2)c2ccccc2)cc1	96 % of control
CCCn1c(N)cc(=O)[nH]c1=S	100 % of control
COc1cccc(NC(=O)c2ccc(C(=O)Nc3cccc(OC)c3)cc2)c1	98 % of control
Cc1cc2nc3[nH]c4ccccc4c3nc2cc1C	91 % of control
Nc1ccc(OCCCc2c(-c3ccccc3)nc(N)[nH]c2=O)cc1	93 % of control
CN(C)c1ccc(/C=N\NC(=O)CCCC(=O)N/N=C/c2ccc(N(C)C)cc2Cl)c(Cl)c1	98 % of control
CC(=O)C(O)COP(=O)(O)O (stereo unspecified)	96 % of control
Nc1ncnc2c1ncn2C1OC(CO)CC1O (stereo unspecified)	111 % of control

Where do the numbers come from? From PubChem BioAssay AID248.
